Quick list: clearance per entry.
- protocol.notes: Clearance in rat at 2 mg/kg, iv
- Assay type: ADME, organism-based
- details: in vivo
// units = mL/min/kg; emit number, no label

compound: COC(=O)N[C@H](C(=O)N1CCC[C@H]1c1ncc(-c2cc(F)c3c(c2)OC(c2ccc4c(c2)OCCC4)n2c-3cc3cc(-c4cnc([C@@H]5C[C@H]6C[C@H]6N5C(=O)[C@@H](NC(=O)OC)C(C)C)[nH]4)ccc32)[nH]1)C(C)C (some centres not stated)
clearance [mL/min/kg]: 11.4

Now consider the entry below.
Q. Item COC(=O)N[C@H](C(=O)N1CCC[C@H]1c1ncc(-c2ccc3c(c2)OC(c2cccc(OC)c2)n2c-3cc3cc(-c4cnc([C@@H]5C[C@H]6C[C@H]6N5C(=O)[C@@H](NC(=O)OC)C(C)C)[nH]4)ccc32)[nH]1)C(C)C (some centres not stated) has what recorded clearance?
A. 6

====

Listing of recorded Selectivity ratio by entry.
- protocol.notes: Selectivity ratio of EC90 for NS5A in HCV genotype 2b to EC90 for NS5A in HCV genotype 1a
Write the value as a bare number.

Q. Could you share which Selectivity ratio value was measured for COC(=O)N[C@H](C(=O)N1CCC[C@H]1c1ncc(-c2cc(F)c3c(c2)OC(c2ccc4c(c2)OCCC4)n2c-3cc3cc(-c4cnc([C@@H]5CCCN5C(=O)[C@@H](NC(=O)OC)C(C)C)[nH]4)ccc32)[nH]1)C(C)C (some centres undefined) ?
A. 103

Q. Fill in the blank: the reported Selectivity ratio of COC(=O)N[C@H](C(=O)N1CCC[C@H]1c1ncc(-c2ccc3c(c2)OC(c2cccc(OC)c2)n2c-3cc3cc(-c4cnc([C@@H]5C[C@H]6C[C@H]6N5C(=O)[C@@H](NC(=O)OC)C(C)C)[nH]4)ccc32)[nH]1)C(C)C (some centres undefined) is ____.
A. 360

Q. I am curious: what Selectivity ratio value has been reported for COC(=O)N[C@H](C(=O)N1CCC[C@H]1c1ncc(-c2cc(F)c3c(c2)OC(c2ccccc2)n2c-3cc3cc(-c4cnc([C@@H]5C[C@H]6C[C@H]6N5C(=O)[C@@H](NC(=O)OC)C(C)C)[nH]4)ccc32)[nH]1)C(C)C (some centres undefined) ?
A. 1000

====

- System: Nonstructural protein 5A (Hepatitis C virus), Q5L478 [Y93H]
- Sequence (whole entry): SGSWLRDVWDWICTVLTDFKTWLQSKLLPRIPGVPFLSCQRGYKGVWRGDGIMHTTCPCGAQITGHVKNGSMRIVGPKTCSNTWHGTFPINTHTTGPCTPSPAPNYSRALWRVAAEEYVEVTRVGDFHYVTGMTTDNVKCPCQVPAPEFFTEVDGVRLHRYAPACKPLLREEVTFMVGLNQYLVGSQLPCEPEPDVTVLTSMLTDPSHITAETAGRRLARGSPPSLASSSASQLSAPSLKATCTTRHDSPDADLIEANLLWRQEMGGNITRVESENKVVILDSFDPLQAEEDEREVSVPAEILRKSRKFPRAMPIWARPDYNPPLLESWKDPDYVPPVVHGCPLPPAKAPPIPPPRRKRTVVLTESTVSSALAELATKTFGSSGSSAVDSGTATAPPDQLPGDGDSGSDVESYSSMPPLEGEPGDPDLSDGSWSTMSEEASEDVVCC
- protocol.notes: Inhibition of NS5A Y93H mutant in HCV genotype 1a assessed as reduction in replicon RNA level after 3 days by cell based RT-PCR method
- details: Hepatitis C virus subtype 1a
readout.name: EC90 (µM)
Please give a number only; it is taken to be in µM.

compound: COC(=O)N[C@H](C(=O)N1C[C@@H](OC)C[C@H]1c1ncc(-c2cc(F)c3c(c2)OC(c2cccc(OC)c2)n2c-3cc3cc(-c4cnc([C@@H]5C[C@H](OC)CN5C(=O)[C@@H](NC(=O)OC)C(C)C)[nH]4)ccc32)[nH]1)C(C)C (some centres undefined)
EC90, µM: 0.00887
//
compound: COC(=O)N[C@H](C(=O)N1CCC[C@H]1c1ncc(-c2ccc3c(c2)cc2n3C(c3cccc(OC)c3)Oc3cc(-c4cnc([C@@H]5C[C@@H](F)CN5C(=O)[C@@H](NC(=O)OC)C(C)C)[nH]4)ccc3-2)[nH]1)C(C)C (some centres undefined)
EC90, µM: 0.0198

Here is another compound to look at.
Q. Fill in the recorded EC90 for this compound, with Nonstructural protein 5A (Hepatitis C virus), Q5L478 [Y93H] as test system: COC(=O)N[C@H](C(=O)N1CCC[C@H]1c1ncc(-c2cc(F)c3c(c2)OC(c2cccc(OC)c2)n2c-3cc3cc(-c4cnc([C@@H]5[C@H]6CC[C@H](C6)N5C(=O)[C@@H](NC(=O)OC)C(C)C)[nH]4)ccc32)[nH]1)C(C)C (some centres undefined)
A. 0.0261
